Measured Target: Alpha-2C adrenergic receptor (Homo sapiens)
Sequence (P18825 whole entry): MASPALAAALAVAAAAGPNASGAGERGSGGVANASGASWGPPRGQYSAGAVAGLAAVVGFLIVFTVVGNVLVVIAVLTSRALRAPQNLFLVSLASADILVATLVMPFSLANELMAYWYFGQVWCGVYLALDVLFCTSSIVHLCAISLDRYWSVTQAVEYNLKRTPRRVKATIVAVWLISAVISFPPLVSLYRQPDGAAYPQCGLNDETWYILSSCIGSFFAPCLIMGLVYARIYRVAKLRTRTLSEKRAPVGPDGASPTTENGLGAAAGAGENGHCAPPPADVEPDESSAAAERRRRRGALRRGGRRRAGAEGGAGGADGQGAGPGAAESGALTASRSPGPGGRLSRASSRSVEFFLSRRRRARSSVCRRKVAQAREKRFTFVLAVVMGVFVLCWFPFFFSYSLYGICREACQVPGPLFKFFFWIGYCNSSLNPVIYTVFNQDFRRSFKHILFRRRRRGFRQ
Before we begin, note that these Ki values for Alpha-2C adrenergic receptor (Homo sapiens) originate from several publications.
Output 1 for records whose Ki is lower than 30 nM, -1 for records at or above 30 nM.

compound=CS(=O)(=O)c1cccc(F)c1NCC1=NCCN1 measured_target="Alpha-2C adrenergic receptor (Homo sapiens)" label_class=-1
compound=C[C@@H]1OC(=O)N(C(=O)NCCCN2CCC(c3ccc(F)cc3)CC2)[C@H]1c1ccc(F)c(F)c1 measured_target="Alpha-2C adrenergic receptor (Homo sapiens)" label_class=-1
compound="CN(C)C[C@H]1CC2c3ccccc3Oc3ccc(Br)cc3[C@H]2O1 (stereo partly drawn)" measured_target="Alpha-2C adrenergic receptor (Homo sapiens)" label_class=-1
compound="C1C2C3CC4C2C2C1C3[C@H](NCC13C5C6C7C5C1C7C63)C42 (stereo partly drawn)" measured_target="Alpha-2C adrenergic receptor (Homo sapiens)" label_class=-1
compound=CCOc1ccccc1OCCN[C@H](C)Cc1ccc(OC)c(S(N)(=O)=O)c1 measured_target="Alpha-2C adrenergic receptor (Homo sapiens)" label_class=1
compound="CN(C)C[C@@H]1CC2c3ccccc3Oc3ccc(F)cc3[C@H]2O1 (stereo partly drawn)" measured_target="Alpha-2C adrenergic receptor (Homo sapiens)" label_class=-1
compound="CO/C(O)=C1\\C(C)=NC(C)=C(C(=O)NCCN2CCC(c3ccccc3)(c3ccccc3)CC2)C1c1ccc([N+](=O)[O-])cc1 (stereo not drawn)" measured_target="Alpha-2C adrenergic receptor (Homo sapiens)" label_class=-1
compound="CC1CCC(Nc2ccccc2Cl)=N1 (stereo not drawn)" measured_target="Alpha-2C adrenergic receptor (Homo sapiens)" label_class=-1
compound=CC1=C(C(=O)NCCCN2CCC(c3ccc(F)cc3C#N)CC2)[C@@H](c2ccc(F)c(F)c2)CC(=O)N1 measured_target="Alpha-2C adrenergic receptor (Homo sapiens)" label_class=-1
compound=COc1ccccc1/C=C(\C)CN1CCN(C[C@@H]2ON=C3c4cc(OC)c(OC)cc4OC[C@H]32)CC1 measured_target="Alpha-2C adrenergic receptor (Homo sapiens)" label_class=1
compound=COc1cc2c(cc1OC)C1=NO[C@@H](CN3CCN(C/C(C)=C/c4cccc(F)c4F)CC3)[C@@H]1CO2 measured_target="Alpha-2C adrenergic receptor (Homo sapiens)" label_class=1
compound="CN(C)C[C@H]1CC2c3ccccc3Oc3ccc(Cl)cc3[C@H]2O1 (stereo partly drawn)" measured_target="Alpha-2C adrenergic receptor (Homo sapiens)" label_class=1
compound="c1ccc2c(c1)C[C@]1(c3cnc[nH]3)C[C@H]21 (stereo in doubt; (+)-1)" measured_target="Alpha-2C adrenergic receptor (Homo sapiens)" label_class=1
compound=COc1cc2c(cc1OC)C1=NO[C@@H](CN3CCN(C/C(C)=C/c4ccc(F)cc4)CC3)[C@@H]1CO2 measured_target="Alpha-2C adrenergic receptor (Homo sapiens)" label_class=1
compound="COc1cc2c(cc1OC)C1=NOC(CN3CCN(Cc4ccc5ccccc5c4)CC3)C1CO2 (stereo not drawn)" measured_target="Alpha-2C adrenergic receptor (Homo sapiens)" label_class=1
compound=CCCCN1CCC(COC(=O)c2cc(F)c(N)c3c2OCCO3)CC1 measured_target="Alpha-2C adrenergic receptor (Homo sapiens)" label_class=-1
compound="c1ccc2c(c1)[C@H]1C[C@@]1(c1c[nH]cn1)C21CC1 (stereo in doubt; 10)" measured_target="Alpha-2C adrenergic receptor (Homo sapiens)" label_class=1
compound=C[C@H]1CC[C@H](C)N1CCCOc1ccc(-c2ccc(C(=O)N3CCOCC3)cc2)cc1 measured_target="Alpha-2C adrenergic receptor (Homo sapiens)" label_class=-1
compound="CC(Oc1ccccc1-c1ccc(O)cc1)C1=NCCN1 (stereo not drawn)" measured_target="Alpha-2C adrenergic receptor (Homo sapiens)" label_class=-1
compound="COc1c(OCCF)cccc1C(O)C1CCN(CCc2ccc(F)cc2)CC1 (stereo not drawn)" measured_target="Alpha-2C adrenergic receptor (Homo sapiens)" label_class=-1
compound=c1ccc2oc(-c3csc(C4CCN(Cc5nc6ncccc6[nH]5)CC4)n3)cc2c1 measured_target="Alpha-2C adrenergic receptor (Homo sapiens)" label_class=-1
compound=C1COC(NC(C2CC2)C2CC2)=N1 measured_target="Alpha-2C adrenergic receptor (Homo sapiens)" label_class=1
compound=Oc1ccc(CCNc2nc(C#Cc3ccc(Cl)s3)nc3[nH]cnc23)cc1O measured_target="Alpha-2C adrenergic receptor (Homo sapiens)" label_class=-1

---

Endpoint summary: Ki, system: the protein given by its sequence, multiple sources combined.
Target chain: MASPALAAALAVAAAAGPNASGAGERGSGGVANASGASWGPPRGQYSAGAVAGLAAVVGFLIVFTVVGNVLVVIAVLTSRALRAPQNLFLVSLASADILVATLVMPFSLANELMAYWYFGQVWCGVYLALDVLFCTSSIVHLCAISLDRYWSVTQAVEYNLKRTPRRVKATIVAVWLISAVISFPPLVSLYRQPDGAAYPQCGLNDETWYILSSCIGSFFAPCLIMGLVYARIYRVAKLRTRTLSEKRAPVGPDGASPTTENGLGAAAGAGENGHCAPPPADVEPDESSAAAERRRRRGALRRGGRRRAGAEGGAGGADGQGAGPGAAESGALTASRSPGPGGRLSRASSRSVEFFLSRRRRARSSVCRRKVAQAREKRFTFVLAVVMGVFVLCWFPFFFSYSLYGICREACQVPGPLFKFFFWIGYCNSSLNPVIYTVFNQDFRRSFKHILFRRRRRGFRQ
Assay Metric: Ki

compound=CS(=O)(=O)c1ccc(C(F)(F)F)cc1NCC1=NCCN1 assay_metric=Ki reading="> 5.01 µM"
compound=CN1CCN(C(=O)C(C)(C)c2ccc(C(=O)Nc3cn4cc(-c5cc(C(C)(C)C)cc(C(C)(C)C)c5)ccc4n3)cc2)CC1 assay_metric=Ki reading="> 10 µM"
compound="CC1CCC(=Nc2ccc(I)cc2Cl)N1 (stereo not given)" assay_metric=Ki reading="> 10 µM"
compound="O=[N+]([O-])c1ccccc1S(=O)(=O)NC[C@H]1CC[C@H](CNCC2CCc3ccccc3C2)CC1 (stereo not given in full)" assay_metric=Ki reading="0.1 µM"
compound=CS(=O)(=O)c1ccc(F)cc1NCC1=NCCN1 assay_metric=Ki reading="> 5.01 µM"
